Source: patent US20040142981A1

For SAUR 9218, measured MIC is reported for the entries below.
Number only, in µg/mL; omit the unit.

Worked examples, 2 molecules total:
[
  {
    "compound": "CN(c1ccc(Cl)cc1)S(=O)(=O)c1ccc(C(=O)Nc2ccc(Br)cc2-c2n[nH]c(=S)o2)cc1",
    "MIC [µg/mL]": 4
  },
  {
    "compound": "CN(c1ccc(Cl)cc1)S(=O)(=O)c1ccc(C(=O)Nc2ccc(Br)cc2-c2noc(=O)[nH]2)cc1",
    "MIC [µg/mL]": 16
  }
]

Q. Check SAUR 9218 data and give MIC for CC(C)Sc1ccc(C(=O)Nc2ccc(Br)cc2-c2noc(=O)[nH]2)cn1 .
A. 8

Q. Check SAUR 9218 data and give MIC for O=C(Nc1ccc(Br)cc1-c1noc(=O)[nH]1)c1cccc(S(=O)(=O)N2CCc3cc(Cl)ccc32)c1 .
A. 4

Q. Check SAUR 9218 data and give MIC for CN(c1ccc(Cl)cc1)S(=O)(=O)c1ccc(C(=O)Nc2ccc(Br)cc2-c2nnn[nH]2)cc1 .
A. 16

Q. Check SAUR 9218 data and give MIC for O=C(Nc1ccc(Br)cc1-c1noc(=O)[nH]1)c1ccc(S(=O)(=O)N2CCc3ccccc32)cc1 .
A. 16

Q. Check SAUR 9218 data and give MIC for O=C(Nc1ccc(I)cc1-c1nnn[nH]1)c1cc2cccc(S(=O)(=O)c3ccccc3)c2[nH]1 .
A. 0.5

Q. Check SAUR 9218 data and give MIC for COc1cccc(C(=O)Nc2ccc(Br)cc2-c2nnn[nH]2)c1 .
A. 64

Q. Check SAUR 9218 data and give MIC for CN(c1ccc(Cl)cc1)S(=O)(=O)c1ccc(C(=O)Nc2ccc(Br)cc2-c2nnn[nH]2)s1 .
A. 8

Q. Check SAUR 9218 data and give MIC for O=C(Nc1ccc(Br)cc1C1=Nc2ccccc2S(=O)(=O)N1)c1cccc(S(=O)(=O)N2CCOCC2)c1 .
A. 16

Q. Check SAUR 9218 data and give MIC for O=C(Nc1ccc(Br)cc1-c1nnn[nH]1)c1ccc(S(=O)(=O)N2CCc3cc(Cl)ccc32)cc1 .
A. 4

Q. Check SAUR 9218 data and give MIC for N#Cc1ccc(NC(=O)c2cc3cccc(S(=O)(=O)c4ccccc4)c3[nH]2)c(-c2nnn[nH]2)c1 .
A. 0.125

Q. Check SAUR 9218 data and give MIC for CN(c1ccc(Cl)cc1)S(=O)(=O)c1csc(C(=O)Nc2ccc(Br)cc2-c2nnn[nH]2)c1 .
A. 16

Q. Check SAUR 9218 data and give MIC for CN(c1ccc(Cl)cc1)S(=O)(=O)c1cccc(C(=O)Nc2ccc(Br)cc2-c2noc(=O)[nH]2)c1 .
A. 16

Q. Check SAUR 9218 data and give MIC for N#Cc1ccc(NC(=O)c2ccc(S(=O)(=O)N3CCc4cc(Cl)ccc43)cc2)c(-c2n[nH]c(=S)o2)c1 .
A. 8
